assay: S. cerevisiae RM11-1a growth modifiers, primary screen, strain RM11-1a, OD600, basal, 24 h (AID 1177); details: OD600, 24 h, higher = more signal, called active from +8 up or from −8 down;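 also: cultures grown under basal conditions with no added stressor; test concentration not given here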
Activity calls are given as the source filed them.
measuredMetric: z-score

Let me know recorded z-score for COC(=O)C[C@H]1O[C@]2(C(=O)N(Cc3ccccc3)c3ccc(I)cc32)[C@@H](C)[C@@H]1[Si](C)(C)c1ccc(OC)cc1 , thanks. 0.765 (inactive)

Let me know recorded z-score for CC[C@@H]1C=C(C(=O)O)[C@H](c2ccccc2)N1S(=O)(=O)c1ccc([N+](=O)[O-])cc1 , thanks. -0.1 (inactive)

Let me know recorded z-score for CCN1C(C)=C(C(=O)OC)[C@@H](c2ccccc2)N2C(=O)[C@](O)(C(=O)OC)[C@@H](c3ccccc3)C(C(=O)c3ccccc3)=C12 , thanks. -0.785 (inactive)

Let me know recorded z-score for C=CCN1C(=O)[C@]2(O[C@H](CCn3cc(CCO)nn3)[C@@H]([Si](C)(C)c3ccc(OC)cc3)[C@@H]2C)c2cc(NC(=O)c3ccc(OC)cc3)ccc21 , thanks. 1.23 (inactive)

====

assay: E. coli acrAB mutant growth effects, primary screen, E. coli filamentation inducers, strain DRC39, OD650, 48 h (AID 1179);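 also: screen aims at cell division blockers that make cells filament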; details: E. coli DRC39 delta-acrAB growth, higher = more signal, called active from +8 up or from −8 down
Active and inactive are the calls of the source.
measuredMetric: z-score

Let me know recorded z-score for Cc1ccc([C@@H]2CC=C(C(=O)O)[C@H](c3ccccc3)N2S(=O)(=O)c2ccc(C)cc2)cc1 , thanks. -1.3 (inactive)

Let me know recorded z-score for COCCOC(=O)N1C(=O)[C@@]2(c3cc(C#CCNC(N)=O)ccc31)[C@H](C(=O)N1CCCCCCC1)[C@H]1C(=O)O[C@H](c3ccccc3)[C@H](c3ccccc3)N1[C@@H]2c1ccccc1OCCO , thanks. 0.614 (inactive)

Let me know recorded z-score for O=C(N1CCCCC1)[C@@]1(CCS(=O)(=O)c2ccccc2)N=C(c2ccc(OCCCO)cc2)O[C@H]1c1ccccc1 , thanks. 0.561 (inactive)

Let me know recorded z-score for N#Cc1ccc(NN2C(C(O)CCc3ccccc3)C=CC3C(=O)N(c4ccccc4)C(=O)C32)cc1 (configuration not stated) , thanks. 0.7 (inactive)

Let me know recorded z-score for Cc1ccc(S(=O)(=O)N2[C@@H](c3ccccc3)C(C(=O)O)=CC[C@H]2c2ccccc2)cc1 , thanks. -1.25 (inactive)

Let me know recorded z-score for COc1ccc([Si](C)(C)[C@H]2[C@H](CC(=O)N3Cc4ccccc4C[C@H]3CO)O[C@@]3(C(=O)N(Cc4cccc(N5CCOC5=O)c4)c4ccccc43)[C@@H]2C)cc1 , thanks. 0.856 (inactive)

Let me know recorded z-score for COc1ccc(-c2ccccc2[C@@H]2N[C@H](C(=O)O)CC[C@H]2C)cc1 , thanks. 0.0279 (inactive)

====

target: Follistatin-related protein 3 (Homo sapiens) (UniProt O95633); assay: FSTL3 binders on small-molecule microarrays, primary screen, biochemical, small-molecule microarray, 635 nm fluorescence (AID 1105); conditions: FSTL3 binding, higher = more signal;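 also: score merges emission near 667 nm and signal to noise per printed spot across three slides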
Sequence (O95633 whole entry, looked up): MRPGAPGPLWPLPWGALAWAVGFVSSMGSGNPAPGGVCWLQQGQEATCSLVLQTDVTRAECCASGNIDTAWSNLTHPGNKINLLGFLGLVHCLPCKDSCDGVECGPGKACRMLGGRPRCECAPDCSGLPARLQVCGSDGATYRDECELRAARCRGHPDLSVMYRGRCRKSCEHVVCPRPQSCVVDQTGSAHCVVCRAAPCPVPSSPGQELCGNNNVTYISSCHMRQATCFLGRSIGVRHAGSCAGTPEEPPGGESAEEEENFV
Each record gets a class by composite z-score: lowest (below -0.4), middle (-0.4 to below 0.8), highest (0.8 or more)

Band assignment needed for CO[C@H]1COC(=O)[C@@H](OCc2ccccc2)C=C[C@H](C)[C@@H](OC)COC(=O)[C@H](OCc2ccccc2)C=C[C@@H]1C please. middle

Band assignment needed for CC(C)CNC(=O)[C@@]1(C)c2ccccc2C(=O)N(Cc2ccc(OC(F)(F)F)cc2)[C@H]1c1ccc(CO)cc1 please. lowest

Band assignment needed for COc1cc2c(cc1OC)CN(C(=O)[C@H]1[C@@H]3C(=O)O[C@@H](c4ccccc4)[C@@H](c4ccccc4)N3[C@@H](c3ccc(O)cc3)[C@]13C(=O)Nc1ccc(C#CC4(O)CCCCCC4)cc13)CC2 please. highest

Band assignment needed for CCC1=C2CN(Cc3ccccc3Br)[C@@H]([C@@H](O)Cc3ccccc3)C2C=CCC1 (stereo not given in full) please. highest

Band assignment needed for CC[C@@H]1C=C(C(=O)O)[C@H](c2ccccc2)N1S(=O)(=O)c1ccc([N+](=O)[O-])cc1 please. middle

Band assignment needed for COc1ccc(-c2ccccc2[C@@H]2N[C@H](C(=O)O)CC[C@H]2C)cc1 please. middle

Band assignment needed for O=C/C=C/c1ccccc1Cl please. lowest

Band assignment needed for COCCOC(=O)N1C(=O)[C@@]2(c3cc(C#CCC(C(=O)OC)C(=O)OC)ccc31)[C@H](C(=O)N1CCN(c3ncccn3)CC1)[C@H]1C(=O)O[C@H](c3ccccc3)[C@H](c3ccccc3)N1[C@@H]2c1ccc(O)cc1 please. middle

Band assignment needed for C=CCc1cccc([C@@H]2[C@@H](C)CC[C@H]3C(=O)N4[C@H](c5cccc(CC=C)c5)[C@@H](C)CC[C@H]4C(=O)N23)c1 please. highest

Band assignment needed for CCCC=C(CCC)[C@@H](NC(=O)c1ccc(C(F)(F)F)cc1)c1ccccc1 please. middle

Band assignment needed for CC(=O)NCCCC[C@@H]1NC(=O)[C@@H]2C[C@H](C(=O)NCc3ccc(F)cc3)[C@H](c3cccc(OCCO)c3)N2C1=O please. lowest

Band assignment needed for C=C(C)[C@@H]1CC=C(C(O)C2C=CC3C(=O)NC(=O)C3N2Nc2ccccn2)CC1 (stereo not given in full) please. highest

Band assignment needed for Cc1ccc(S[C@]2(C(=O)NCCN3CCOCC3)CC(=O)N(C3Cc4ccccc4C3)[C@@H]2c2ccc(CO)cc2I)cc1 please. middle

Band assignment needed for CCCCCCc1nc(-c2cc(C)c(OC)c(C)c2)cc2c1[Si](C(C)C)(C(C)C)O[C@H]2c1ccccc1 please. lowest

Band assignment needed for C=C(/C(=C/C[C@@H](OC(=O)c1ccncc1)c1ccc(CO)o1)c1cnc2ccccc2c1)C(C)C please. highest

====

assay: small-molecule microarray binders of probe aShh, primary screen, biochemical, biotinylated probe, 635/667 nm fluorescence (AID 1114); details: higher = more signal;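 also: probe is biotin-labelled aShh protein from a stem cell growth factor screen; measures binding of labelled protein to compounds printed on the slide; score merges feature fluorescence at 667 nm with signal-to-noise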
measuredMetric: composite z-score

Let me know recorded composite z-score for Cc1ccc(S[C@]2(C(=O)O)CC(=O)N(Cc3ccccc3)[C@@H]2c2ccc(CO)cc2)cc1 , thanks. 0.046

Let me know recorded composite z-score for O=C/C=C/c1ccccc1Cl , thanks. -0.0626

Let me know recorded composite z-score for Cc1ccc(N2C(=O)c3ccccc3[C@](C)(C(=O)O)[C@@H]2c2ccc(CO)cc2)nc1 , thanks. 0.608

Let me know recorded composite z-score for CO[C@@H]1COC(=O)[C@H](C)NC(=O)CC=C[C@@H](C)[C@H](OC)COC(=O)[C@H](C)NC(=O)CC=C[C@H]1C , thanks. -0.223

Let me know recorded composite z-score for C=CC[C@]1(C(N)=O)N=C(c2ccc(OCCCO)cc2)O[C@H]1c1ccccc1CN=[N+]=[N-] , thanks. -0.203

Let me know recorded composite z-score for CCOC(=O)C[C@H]1[C@H](OC(=O)c2cc3ccccc3oc2=O)[C@@H](NC(=O)C2CCCCC2)c2cc(OCCCO)ccc2N1C(=O)c1ccc2ccccc2n1 , thanks. 0.225

Let me know recorded composite z-score for O=C1O[C@@H](c2ccccc2)[C@@H](c2ccccc2)N2[C@@H](c3ccccc3OCCO)[C@]3(C(=O)Nc4ccc(C#CC5=CCCCC5)cc43)[C@@H](C(=O)O)[C@H]12 , thanks. 0.13

Let me know recorded composite z-score for C[C@@H]1CC[C@H]2C(=O)N3[C@@H](CC[C@@H](C)[C@@H]3c3cccc(N4CCOCC4)c3)C(=O)N2[C@H]1c1cccc(Br)c1 , thanks. -0.138

Let me know recorded composite z-score for C=CCc1cccc([C@H]2N[C@H](C(=O)O)CC[C@@H]2C)c1 , thanks. -0.271

Let me know recorded composite z-score for Cc1ccc(N2C(=O)c3ccccc3[C@](C)(C(=O)NCC(C)C)[C@@H]2c2ccc(CO)cc2)nc1 , thanks. -0.0257

Let me know recorded composite z-score for COc1cc(Cc2cc3c(c(CCc4ccccc4)n2)[Si](C(C)C)(C(C)C)OC3)cc(OC)c1OC , thanks. 0.0796

Let me know recorded composite z-score for COC(=O)[C@@]1(Cc2ccccc2)[C@H]2c3cc(C(=O)N4CCCC4)n(CCN4CNCC4=O)c3C[C@H]2CN1C(=O)c1ccccc1 , thanks. -0.288

Let me know recorded composite z-score for O=C1C[C@@](C(=O)NCCN2CCOCC2)(c2ccc([N+](=O)[O-])cc2)[C@@H](c2ccc(CO)cc2)N1C1CCCCC1 , thanks. 0.171

Let me know recorded composite z-score for C[C@@H]1CC[C@H]2C(=O)N3CCC[C@H]3C(=O)N2[C@H]1c1ccc(Br)cc1 , thanks. -0.0769

Let me know recorded composite z-score for COCCCNC(=O)[C@@H]1c2ccccc2C(=O)N(CC23CC4CC(CC(C4)C2)C3)[C@H]1c1ccc(CO)cc1 , thanks. 0.778

Let me know recorded composite z-score for C=CCN(C(=O)C1N(c2ccc(CCO)cc2)C(=O)C2C(C(=O)O)C3C=CC21O3)C(C)(C)C (stereo unspecified) , thanks. -0.27
